ASSAY INFO: Pharmacokinetics of S3643, single iv or oral dose
Format: in vivo, Sprague-Dawley rats
STUDY CONDITIONS: male, Sprague-Dawley, rat, plasma, iv, 1 mg/kg
VALUE TYPE: clearance
Respond with the figure and its unit, in that order.

Incoming: Using the record for COc1cccc(-c2n[nH]c(SCc3ccccn3)n2)c1OC [S3643] , report its clearance.
Outgoing: 5.97 mL/min/kg

* * *

ASSAY INFO: Pharmacokinetics of S3643, single iv or oral dose
Type: in vivo, Sprague-Dawley rats
STUDY CONDITIONS: female, Sprague-Dawley, rat, plasma, po
VALUE TYPE: half-life

Incoming: # input compound: COc1cccc(-c2n[nH]c(SCc3ccccn3)n2)c1OC ; wanted: its half-life
Outgoing: 0.89 to 1.66 h

* * *

ASSAY INFO: Pharmacokinetics of S3643, single iv or oral dose
Format: in vivo, Sprague-Dawley rats
STUDY CONDITIONS: female, Sprague-Dawley, rat, plasma, po, 100 mg/kg
VALUE TYPE: half-life (h)
Quick note: give the figure in h, leave out the unit.

Incoming: Name the reported half-life value associated with the compound COc1cccc(-c2n[nH]c(SCc3ccccn3)n2)c1OC
Outgoing: 1.66

* * *

ASSAY INFO: Pharmacokinetics of S3643, single iv or oral dose
Assay type: in vivo, Sprague-Dawley rats
STUDY CONDITIONS: female, Sprague-Dawley, rat, plasma, po, 100 mg/kg, AUClast, oral 100 mg/kg bw
VALUE TYPE: AUC(0-t)
Answer shape: numeric part, then the unit.

Incoming: # lookup: AUC(0-t) of COc1cccc(-c2n[nH]c(SCc3ccccn3)n2)c1OC
Outgoing: 239 µg·h/mL

* * *

ASSAY INFO: In vivo metabolism of S3643, single oral dose 100 mg/kg bw
Design: species or system Sprague-Dawley rats
STUDY CONDITIONS: both, Sprague-Dawley, rat, plasma, oral, 100 mg/kg bw
VALUE TYPE: concentration at 8 h (µg/mL)
Write down the numeric answer in µg/mL and omit the unit.

Incoming: Any idea what concentration at 8 h was measured for COc1cccc(-c2n[nH]c(SCc3ccccn3)n2)c1OC ?
Outgoing: 4.83

* * *

ASSAY INFO: In vivo metabolism of S3643, single oral dose 100 mg/kg bw
Design: species or system Sprague-Dawley rats
STUDY CONDITIONS: both, Sprague-Dawley, rat, plasma, oral, 100 mg/kg bw
VALUE TYPE: concentration at 0.5 h (µg/mL)
Enter your answer as a number in µg/mL; do not include the unit.

Incoming: I'd like to know its concentration at 0.5 h. The compound in question is COc1cccc(-c2n[nH]c(SCc3ccccn3)n2)c1OC
Outgoing: 81.4

* * *

SYSTEM TESTED: CYP1A2 (Homo sapiens)
Sequence (P05177 whole entry): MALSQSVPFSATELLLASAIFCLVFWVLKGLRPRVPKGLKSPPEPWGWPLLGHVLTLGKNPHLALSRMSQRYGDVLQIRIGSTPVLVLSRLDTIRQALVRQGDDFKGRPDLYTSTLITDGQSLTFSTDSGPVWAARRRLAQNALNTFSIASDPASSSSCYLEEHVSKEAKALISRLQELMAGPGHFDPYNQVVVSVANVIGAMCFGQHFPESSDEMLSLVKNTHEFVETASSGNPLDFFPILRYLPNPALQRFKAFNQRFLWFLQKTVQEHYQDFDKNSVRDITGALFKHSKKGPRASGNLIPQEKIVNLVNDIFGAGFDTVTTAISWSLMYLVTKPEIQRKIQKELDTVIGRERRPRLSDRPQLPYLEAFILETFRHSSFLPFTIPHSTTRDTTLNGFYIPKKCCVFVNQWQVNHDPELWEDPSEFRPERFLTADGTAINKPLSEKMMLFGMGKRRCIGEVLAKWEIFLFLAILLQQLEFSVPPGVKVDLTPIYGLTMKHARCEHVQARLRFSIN
VALUE TYPE: IC50

Incoming: Can you look up the measured IC50 of COc1cccc(-c2n[nH]c(SCc3ccccn3)n2)c1OC for me?
Outgoing: > 10 µM

* * *

ASSAY INFO: Pharmacokinetics of S3643, single iv or oral dose
Assay type: in vivo, Sprague-Dawley rats
STUDY CONDITIONS: male, Sprague-Dawley, rat, plasma, po, 10 mg/kg, Cmax, oral 10 mg/kg bw
VALUE TYPE: Cmax (ng/mL)
Return type: number; implicit unit ng/mL.

Incoming: Reported Cmax for COc1cccc(-c2n[nH]c(SCc3ccccn3)n2)c1OC : what is it?
Outgoing: 32500

Source listed as paper PMC5615911.
